Reference source for all entries: patent US4822907A

Experiment: Desalting and concentration of raw solution on spiral polyamide reverse osmosis membranes; inhibition rate of each component (Example 1, Table 1)
Format: physicochemical
Conditions: membrane NaCl inhibition rate 60%; when concentrated to 2.5 times; 20° C., 40 kg/cm^2
Experimental: Desalting and concentration were performed, while cyclizing and mixing a non-permeation solution to and with the raw solution. From the composition of the permeation liquid exhausted in this case, the inhibition rate of each component was calculated according to the following equation. [formula] Analysis method: liquid chromatography (α-A(M)PM, α-APM, α-AP), (Cl^-).
Residues, ends and D or L forms follow the SMILES beside them.
Property Measured: Inhibition Rate (%)
Respond numerically; units are % and should not be typed.

// below: answered compounds
| Compound | Units Symbol | Numeric Readout |
| --- | --- | --- |
| COC(=O)C[C@H](N)C(=O)N[C@@H](Cc1ccccc1)C(=O)OC [α-A(M)PM] (H-Asp(OMe)-Phe-OMe) | % | 92.2 |
| COC(=O)[C@H](Cc1ccccc1)NC(=O)[C@@H](N)CC(=O)O [α-APM] (H-Asp-Phe-OMe) | % | 99.3 |
| N[C@@H](CC(=O)O)C(=O)N[C@@H](Cc1ccccc1)C(=O)O [α-AP, α-L-aspartyl-L-phenylalanine] (H-Asp-Phe-OH) | % | 99.7 |

Next, consider the following compound.
Return Inhibition Rate for the following compound: [Cl-].[Na+] [NaCl, sodium chloride]
56.5

###

assay: Desalting and concentration of raw solution on spiral polyamide reverse osmosis membranes; inhibition rate of each component (Example 1, Table 1); format: physicochemical; settings: membrane NaCl inhibition rate 15% (control); when concentrated to 2.5 times; 20° C., 40 kg/cm^2
Residues, ends and D or L forms follow the SMILES beside them.
Measured Inhibition Rate values are reported for all entries that follow.
Entry format: amount then unit.

Output Inhibition Rate of N[C@@H](CC(=O)O)C(=O)N[C@@H](Cc1ccccc1)C(=O)O [α-AP, α-L-aspartyl-L-phenylalanine] (H-Asp-Phe-OH)
85.6%

###

test: Desalting and concentration of raw solution on spiral polyamide reverse osmosis membranes; inhibition rate of each component (Example 1, Table 1); format: physicochemical; conditions: membrane NaCl inhibition rate 80%; when concentrated to 2.5 times; 20° C., 40 kg/cm^2
Residues, ends and D or L forms follow the SMILES beside them.
Property Measured: Inhibition Rate (%)
Give the value in % but do not write % after it.

Some solved entries appear below for comparison.
| Molecule | Units Symbol | Inhibition Rate |
| --- | --- | --- |
| N[C@@H](CC(=O)O)C(=O)N[C@@H](Cc1ccccc1)C(=O)O [α-AP, α-L-aspartyl-L-phenylalanine] (H-Asp-Phe-OH) | % | 99.9 |
| [Cl-].[Na+] [NaCl, sodium chloride] | % | 82.3 |
| COC(=O)[C@H](Cc1ccccc1)NC(=O)[C@@H](N)CC(=O)O [α-APM] (H-Asp-Phe-OMe) | % | 99.6 |

Then this molecule:
Report Inhibition Rate for COC(=O)C[C@H](N)C(=O)N[C@@H](Cc1ccccc1)C(=O)OC [α-A(M)PM] (H-Asp(OMe)-Phe-OMe)
93.9

###

Readings of Inhibition Rate for the listed molecules
assay: Desalting and concentration of raw solution on spiral polyamide reverse osmosis membranes; inhibition rate of each component (Example 1, Table 1); type: physicochemical; settings: membrane NaCl inhibition rate 30%; when concentrated to 2.5 times; 20° C., 40 kg/cm^2
Residues, ends and D or L forms follow the SMILES beside them.
The response must be a number in % with no trailing unit.

For orientation, consider the following solved cases.
| Molecule | Inhibition Rate [%] |
| --- | --- |
| N[C@@H](CC(=O)O)C(=O)N[C@@H](Cc1ccccc1)C(=O)O [α-AP, α-L-aspartyl-L-phenylalanine] (H-Asp-Phe-OH) | 98.3 |
| COC(=O)C[C@H](N)C(=O)N[C@@H](Cc1ccccc1)C(=O)OC [α-A(M)PM] (H-Asp(OMe)-Phe-OMe) | 84.1 |
| COC(=O)[C@H](Cc1ccccc1)NC(=O)[C@@H](N)CC(=O)O [α-APM] (H-Asp-Phe-OMe) | 97.7 |

We now examine a further molecule.
// fetch Inhibition Rate given entry [Cl-].[Na+] [NaCl, sodium chloride]
19.4

###

experiment: Desalting and concentration of neutralized mother liquor on flat reverse osmosis membrane; residual rate (Example 2, Table 2); format: physicochemical; details: Polysulfone Type (B), NaCl inhibition rate 25%, comparison; pH 5.2, 25°, 40 kg/cm^2 G
Residues, ends and D or L forms follow the SMILES beside them.
As shown below, each of these molecules has a reported Residual Rate value.
# value in %; strip the unit string

Example entries begin here.
| Molecule | Units Symbol | Residual Rate |
| --- | --- | --- |
| COC(=O)C[C@H](N)C(=O)N[C@@H](Cc1ccccc1)C(=O)O [α-A(M)P] (H-Asp(OMe)-Phe-OH) | % | 60.8 |
| Cl.N | % | 32.5 |
| N[C@@H](CC(=O)O)C(=O)N[C@@H](Cc1ccccc1)C(=O)O [α-AP, α-L-aspartyl-L-phenylalanine] (H-Asp-Phe-OH) | % | 68.9 |
| COC(=O)[C@H](Cc1ccccc1)NC(=O)[C@@H](N)CC(=O)O [α-APM] (H-Asp-Phe-OMe) | % | 60.8 |

Next molecule, Residual Rate to be filled in.
Tell me Residual Rate reported for COC(=O)C[C@H](N)C(=O)N[C@@H](Cc1ccccc1)C(=O)OC [α-A(M)PM] (H-Asp(OMe)-Phe-OMe)
48.2

###

# Inhibition Rate values compiled below
Assay: Desalting and concentration of raw solution on spiral polyamide reverse osmosis membranes; inhibition rate of each component (Example 1, Table 1)
Assay type: physicochemical
Conditions: membrane NaCl inhibition rate 15% (control); immediately after permeation started; pH 4.54, 20° C., 40 kg/cm^2
Description: Desalting and concentration were performed, while cyclizing and mixing a non-permeation solution to and with the raw solution. From the composition of the permeation liquid exhausted in this case, the inhibition rate of each component was calculated according to the following equation. [formula] Analysis method: liquid chromatography (α-A(M)PM, α-APM, α-AP), (Cl^-).
Residues, ends and D or L forms follow the SMILES beside them.
State just the number; it will be interpreted in %.

# count of solved cases: 3
| Compound | Inhibition Rate, % |
| --- | --- |
| COC(=O)C[C@H](N)C(=O)N[C@@H](Cc1ccccc1)C(=O)OC [α-A(M)PM] (H-Asp(OMe)-Phe-OMe) | 56.7 |
| N[C@@H](CC(=O)O)C(=O)N[C@@H](Cc1ccccc1)C(=O)O [α-AP, α-L-aspartyl-L-phenylalanine] (H-Asp-Phe-OH) | 81.5 |
| COC(=O)[C@H](Cc1ccccc1)NC(=O)[C@@H](N)CC(=O)O [α-APM] (H-Asp-Phe-OMe) | 74.1 |

Let us move to another entry and its Inhibition Rate.
State its Inhibition Rate: [Cl-].[Na+] [NaCl, sodium chloride]
11.0

###

test: Desalting and concentration of neutralized mother liquor on flat reverse osmosis membrane; residual rate (Example 2, Table 2); type: physicochemical; settings: Polyamide Type (A), NaCl inhibition rate 50%; pH 5.2, 25°, 40 kg/cm^2 G
Residues, ends and D or L forms follow the SMILES beside them.
Property Measured: Residual Rate (%)
Field format: number, assumed %, no unit text.

| Compound | Residual Rate [%] |
| --- | --- |
| COC(=O)[C@H](Cc1ccccc1)NC(=O)[C@@H](N)CC(=O)O [α-APM] (H-Asp-Phe-OMe) | 98.0 |
| Cl.N | 50.4 |
| N[C@@H](CC(=O)O)C(=O)N[C@@H](Cc1ccccc1)C(=O)O [α-AP, α-L-aspartyl-L-phenylalanine] (H-Asp-Phe-OH) | 98.7 |
| COC(=O)C[C@H](N)C(=O)N[C@@H](Cc1ccccc1)C(=O)OC [α-A(M)PM] (H-Asp(OMe)-Phe-OMe) | 80.3 |

# return recorded Residual Rate for input COC(=O)C[C@H](N)C(=O)N[C@@H](Cc1ccccc1)C(=O)O [α-A(M)P] (H-Asp(OMe)-Phe-OH)
97.8

###

Assay: Desalting and concentration of raw solution on spiral polyamide reverse osmosis membranes; inhibition rate of each component (Example 1, Table 1)
Format: physicochemical
Settings: membrane NaCl inhibition rate 60%; immediately after permeation started; pH 4.54, 20° C., 40 kg/cm^2
Procedure: Desalting and concentration were performed, while cyclizing and mixing a non-permeation solution to and with the raw solution. From the composition of the permeation liquid exhausted in this case, the inhibition rate of each component was calculated according to the following equation. [formula] Analysis method: liquid chromatography (α-A(M)PM, α-APM, α-AP), (Cl^-).
Residues, ends and D or L forms follow the SMILES beside them.
Property Measured: Inhibition Rate
Provide a numeric answer, followed by its unit.

Give the reported Inhibition Rate for this molecule. N[C@@H](CC(=O)O)C(=O)N[C@@H](Cc1ccccc1)C(=O)O [α-AP, α-L-aspartyl-L-phenylalanine] (H-Asp-Phe-OH)
99.5%

State its Inhibition Rate: [Cl-].[Na+] [NaCl, sodium chloride]
60.3%

Recall and state the measured Inhibition Rate for COC(=O)[C@H](Cc1ccccc1)NC(=O)[C@@H](N)CC(=O)O [α-APM] (H-Asp-Phe-OMe) .
99.1%

Provide only the value of recorded Inhibition Rate for COC(=O)C[C@H](N)C(=O)N[C@@H](Cc1ccccc1)C(=O)OC [α-A(M)PM] (H-Asp(OMe)-Phe-OMe)
91.0%
